Just for reference, PubChem BioAssay is where these values come from.

target: Calcium-dependent protein kinase 1 (Plasmodium falciparum (isolate 3D7)) (UniProt P62344); experiment: PfCDPK1 kinase inhibitors, biochemical, TCAMS library (AID 1159585); details: recombinant PfCDPK1, Kinase-Glo ATP depletion luminescence;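 further: inhibitors leave more ATP so luminescence rises with inhibition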
Sequence (P62344 whole entry, looked up): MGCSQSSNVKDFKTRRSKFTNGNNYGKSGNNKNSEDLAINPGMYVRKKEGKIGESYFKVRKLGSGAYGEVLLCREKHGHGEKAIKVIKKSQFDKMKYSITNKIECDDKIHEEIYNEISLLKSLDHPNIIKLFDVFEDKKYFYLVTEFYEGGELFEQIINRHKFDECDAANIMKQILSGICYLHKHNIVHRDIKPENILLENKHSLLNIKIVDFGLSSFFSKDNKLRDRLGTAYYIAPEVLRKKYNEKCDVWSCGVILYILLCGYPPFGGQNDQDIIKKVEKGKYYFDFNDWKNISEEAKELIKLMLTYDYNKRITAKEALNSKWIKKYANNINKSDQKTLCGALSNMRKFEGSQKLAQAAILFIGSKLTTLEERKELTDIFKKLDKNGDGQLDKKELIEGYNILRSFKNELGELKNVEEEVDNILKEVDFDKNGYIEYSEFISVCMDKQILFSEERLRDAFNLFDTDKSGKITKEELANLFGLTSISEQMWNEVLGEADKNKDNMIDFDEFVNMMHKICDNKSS
Measured potencies and affinities stand elsewhere. The source made the active and inactive calls. Cut-off not given; nearly all actives show IC50 up to about 0.98 µM.
attribute measured: outcome

Answered examples (4):
>  <molecule>
COCCSc1ccc(CC(C)NCC(O)c2cccc(Cl)c2)cc1 (stereo not given)

>  <endpoint result>
inactive

$$$$
>  <molecule>
Cc1[nH]c2ccccc2c1C1=CCN(CCCCCC23CCCc4cccc(c42)NC3=O)CC1 (stereo not given)

>  <endpoint result>
inactive

$$$$
>  <molecule>
CC(Cc1ccc(OCCCCOc2ccccc2)cc1)NCCC1CCCN1C (stereo not given)

>  <endpoint result>
inactive

$$$$
>  <molecule>
OC1(c2ccc(Cl)c(C(F)(F)F)c2)CCN(CCOC2c3ccccc3CSc3ccc(Cl)cc32)CC1 (stereo not given)

>  <endpoint result>
inactive

$$$$

Return reported outcome; argument: Cc1ccc(CC(C)NC[C@H](O)c2cccc(Cl)c2)cc1 (stereo not given in full)
inactive
